Molecular target: Keap1 Kelch domain (321-609) / TAMRA-labeled 16mer NRF2 peptide (ETGE motif) (Homo sapiens, UniProt Q14145)
Construct: the Kelch domain (321-609) of Keap1 is used
Sequence (Q14145 321-609): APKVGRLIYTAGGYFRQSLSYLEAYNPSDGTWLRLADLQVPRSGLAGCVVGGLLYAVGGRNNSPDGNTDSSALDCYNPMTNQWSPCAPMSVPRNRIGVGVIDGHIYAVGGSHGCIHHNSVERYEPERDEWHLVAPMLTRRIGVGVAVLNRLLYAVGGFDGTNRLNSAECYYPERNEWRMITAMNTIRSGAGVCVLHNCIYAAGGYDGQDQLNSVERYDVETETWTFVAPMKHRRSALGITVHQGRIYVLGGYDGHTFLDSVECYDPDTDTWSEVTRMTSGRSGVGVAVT
Test: NRF2-Keap1 FP Assay (Keap1 Kelch fluorescence polarization)
Conditions: 20 nM Keap1 (321-609), 8 nM Tamra labeled peptide
Measured Attribute: IC50

Check out these entries, answers already filled in.
>  <Compound>
COC(c1cccc(-c2cccc(-n3ncc(C(=O)O)c3C3CC3c3cn(C)nn3)c2)c1)C(C)C (stereo not shown) [Example 184]

>  <IC50>
10 to 100 nM

$$$$
>  <Compound>
Cn1cc([C@@H]2C[C@H]2c2c(C(=O)O)cnn2-c2cccc(-c3cccc(CN4CCCCC4)c3)c2)nn1 (racemic) [Example 247]

>  <IC50>
100 to 1000 nM

$$$$
>  <Compound>
Cc1cc([C@@H]2C[C@H]2c2c(C(=O)O)cnn2-c2cccc(-c3cccc(O[C@@H](C)C4CCCCC4)c3)c2)on1 [Example 115]

>  <IC50>
100 to 1000 nM

$$$$

Hi, could you look up IC50 for each item in my list?
1. Cn1cc(C2CC2c2c(C(=O)O)cnn2-c2cccc(-c3cccc(OCC4CCCCC4)c3)c2)nn1 (stereo not shown) [Example 164]
2. C[C@@H]1CN(Cc2cccc(-c3cccc(-n4ncc(C(=O)O)c4[C@@H]4C[C@H]4c4cn(C)nn4)c3)c2)Cc2ccccc2O1 [Example 253]
3. CCCC1CCCCN1C(=O)c1cccc(-c2cccc(-n3ncc(C(=O)O)c3CCc3cn(C)nn3)c2)c1F (stereo not shown) [Example 56]
4. Cn1cc([C@@H]2C[C@H]2c2c(C(=O)O)cnn2-c2cccc(-c3cccc(OC[C@H]4CC[C@H](C(F)(F)F)CC4)c3)c2)nn1 (racemic) [Example 146]

Given back:
["10 to 100 nM", "10 to 100 nM", "10 to 100 nM", "10 to 100 nM"]

Hi, could you look up IC50 for each item in my list?
1. CCn1cc([C@@H]2C[C@H]2c2c(C(=O)O)cnn2-c2cccc(-c3cccc(O[C@@H](C)C4CCCCC4)c3)c2)nn1 (racemic) [Example 76]
2. CC(Oc1cccc(-c2cccc(-n3ncc(C(=O)O)c3[C@H]3C[C@@H]3c3cn(C)nn3)c2)c1)C1CCCCC1 (stereo partly shown) [Example 165]

Given back:
1: 10 to 100 nM; 2: 10 to 100 nM

Count: 4. Required value per item: IC50.
1. Cn1cc([C@H]2C[C@@H]2c2c(C(=O)O)cnn2-c2cccc(-c3cccc(C(=O)N4CCCCC4)c3F)c2)nn1 (racemic) [Example 258]
2. CC(Oc1cccc(-c2cccc(-n3ncc(C(=O)O)c3C3CC3c3cn(C)nn3)c2)c1)C1CCOCC1 (stereo not shown) [Example 227]
3. CCC[C@@H]1CCCCN1C(=O)c1cccc(-c2cc(C)cc(-n3ncc(C(=O)O)c3[C@H]3C[C@@H]3c3cn(C)nn3)c2)c1 (single isomer, unassigned) [Example 156]
4. C[C@H](Oc1cccc(-c2cccc(-n3ncc(C(=O)O)c3[C@@H]3C[C@H]3c3cnn(C)c3)c2)c1)C1CCCCC1 (racemic) [Example 103]

Given back:
10 to 100 nM
10 to 100 nM
100 to 1000 nM
1000 to 10000 nM

* * *

Target: full length Keap1 protein / full length NRF2 protein (Homo sapiens)
Construct: full length NRF2 protein and full length Keap1 protein (Keap1 exists a dimer) are used; His
Test: NRF2-Keap1 TR-FRET Low Protein Assay
Format: binding
Details: 1.25 nM Keap1 FlagHis and 2.5 nM biotin-NRF2 added
Description: NRF2-Keap1 TR-FRET Low Protein Assay In the NRF2-Keap1 TR-FRET (time-resolved fluorescence resonance energy transfer) low protein assay, full length NRF2 protein and full length Keap1 protein (Keap1 exists a dimer) are used. […] Plates are spun at 500 rpm for 1 minute, incubated for 1 hour at RT, and read on an Envision plate reader using a 320 nm excitation filter and 615 nm and 665 nm emission filters. […]
Measured Attribute: IC50

>  <Compound>
CC(C)n1cc([C@@H]2C[C@H]2c2c(C(=O)O)cnn2-c2cccc(-c3cccc(O[C@@H](C)C4CCCCC4)c3)c2)nn1 (racemic)

>  <System>
full length Keap1 protein / full length NRF2 protein (Homo sapiens)

>  <Measured Attribute>
IC50

>  <Observed Result>
10 to 100 nM

$$$$

Give measured IC50 for every item shown.
1. CC1(C)CCc2cnn(-c3cccc(-c4cccc(-n5ncc(C(=O)O)c5C(F)(F)F)c4)c3)c21
2. C[C@H]1Cc2ccc(Br)cc2S(=O)(=O)N(Cc2cccc(-c3cccc(-n4ncc(C(=O)O)c4[C@@H]4C[C@H]4c4cn(C)nn4)c3)c2)C1 (single isomer, unassigned; isomer 1)
3. C[C@H](Oc1cccc(-c2cccc(-n3ncc(C(=O)OCCN4CCOCC4)c3[C@@H]3C[C@H]3c3cn(C)nn3)c2)c1)C1CCCCC1
4. CCCC1(C)CCc2cnn(-c3cccc(-c4cccc(-n5ncc(C(=O)O)c5C5CC5)c4)c3)c21 (stereo not drawn)
5. CC(Oc1cccc(-c2cccc(-n3ncc(C(=O)O)c3C3CC3c3cn(C)nn3)c2)c1)c1ccccc1 (stereo not drawn)

Given back:
1: 100 to 1000 nM; 2: < 10 nM; 3: 1000 to 10000 nM; 4: 10 to 100 nM; 5: 10 to 100 nM

* * *

Biological target: full length Keap1 protein / full length NRF2 protein (Homo sapiens, UniProt Q14145)
Construct: full length NRF2 protein and full length Keap1 protein (Keap1 exists a dimer) are used; His
Sequence (Q14145 whole entry): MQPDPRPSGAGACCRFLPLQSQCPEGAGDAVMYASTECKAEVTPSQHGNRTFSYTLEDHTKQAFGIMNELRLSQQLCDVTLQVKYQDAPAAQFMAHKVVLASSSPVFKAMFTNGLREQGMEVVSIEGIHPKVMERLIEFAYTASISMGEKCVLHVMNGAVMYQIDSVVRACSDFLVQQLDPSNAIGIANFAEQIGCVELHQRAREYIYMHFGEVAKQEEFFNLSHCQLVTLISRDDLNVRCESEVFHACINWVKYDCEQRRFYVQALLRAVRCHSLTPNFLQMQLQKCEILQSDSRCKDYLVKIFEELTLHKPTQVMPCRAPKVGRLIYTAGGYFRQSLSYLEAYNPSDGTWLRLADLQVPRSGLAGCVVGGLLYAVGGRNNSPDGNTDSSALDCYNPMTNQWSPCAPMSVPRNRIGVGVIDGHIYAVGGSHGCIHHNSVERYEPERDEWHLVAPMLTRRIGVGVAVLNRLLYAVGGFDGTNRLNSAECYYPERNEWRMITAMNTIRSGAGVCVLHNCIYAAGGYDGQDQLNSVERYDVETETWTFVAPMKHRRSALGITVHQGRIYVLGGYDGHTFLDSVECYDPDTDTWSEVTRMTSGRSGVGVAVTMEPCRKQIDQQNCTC
Assay: NRF2-Keap1 TR-FRET Low Protein Assay
Assay type: binding
Conditions: 1.25 nM Keap1 FlagHis and 2.5 nM biotin-NRF2 added
Measured Attribute: IC50

>  <Molecule>
Cn1cc(C2CC2c2c(C(=O)O)cnn2-c2cccc(-c3cccc(C(=O)C4CCCCC4)c3)c2)nn1 (centres unmarked)

>  <System>
full length Keap1 protein / full length NRF2 protein (Homo sapiens, UniProt Q14145)

>  <IC50>
10 to 100 nM

$$$$

Give IC50 for each of the items listed below.
1. COCC1CCCCN1C(=O)c1cccc(-c2cccc(-n3ncc(C(=O)O)c3C3C[C@H]3c3cn(C)nn3)c2)c1F (mixture of isomers)
2. Cn1cc([C@@H]2C[C@H]2c2c(C(=O)O)cnn2-c2cccc(-c3cccc(OCC4CCC(F)(F)CC4)c3)c2)nn1 (racemic)
3. C[C@H](Oc1cccc(-c2cccc(-n3ncc(C(=O)O)c3[C@H]3C[C@@H]3c3c[nH]nn3)c2)c1)C1CCCCC1
4. CC(C)CC1CCCCN1C(=O)c1cccc(-c2cccc(-n3ncc(C(=O)O)c3C3CC3)c2)c1F (centres unmarked)
5. C[C@@H](Oc1cccc(-c2cccc(-n3ncc(C(=O)O)c3[C@@H]3C[C@H]3c3cn(C)nn3)c2)c1)C1CCCCC1
6. CCC(Oc1cccc(-c2cccc(-n3ncc(C(=O)O)c3[C@H]3C[C@@H]3c3cn(C)nn3)c2)c1)C1CCCCC1 (mixture of isomers)
7. Cn1cc([C@H]2C[C@@H]2c2c(C(=O)O)cnn2-c2cccc(-c3cccc(OCc4cccc(-c5ccccc5)c4)c3)c2)nn1 (racemic)
8. CCCC1CCCCN1S(=O)(=O)c1cccc(-c2cccc(-n3ncc(C(=O)O)c3[C@@H]3C[C@H]3c3cn(C)nn3)c2)c1 (mixture of isomers)

Given back:
1. < 10 nM
2. 10 to 100 nM
3. 100 to 1000 nM
4. 10 to 100 nM
5. 10 to 100 nM
6. 10 to 100 nM
7. 100 to 1000 nM
8. 10 to 100 nM

* * *

System: NQO1 specific enzyme activity in BEAS-2B cells (marker for NRF2 activation)
Experiment: BEAS-2B NQO1 MTT Assay
Assay type: cell-based
Conditions: Homo sapiens, BEAS-2B, 48 h, compound incubated 48 hours, read-out: EC50 (NQO1 specific enzyme activity induction)
pEC50: −log10 of the molar value.
Measured Attribute: pEC50

Some entries whose results are on file:
>  <Molecule>
CC(Oc1cccc(-c2cccc(-n3ncc(C(=O)O)c3[C@@H]3C[C@H]3c3cn(C)nn3)c2)c1)C1CCCCC1 (stereo partly shown) [Example 163]

>  <System>
NQO1 specific enzyme activity in BEAS-2B cells (marker for NRF2 activation)

>  <pEC50>
7.00 to 8.00

$$$$
>  <Molecule>
Cc1ccnn1-c1cccc(-c2cccc(-n3ncc(C(=O)O)c3C3CC3)c2)c1 [Example 36]

>  <System>
NQO1 specific enzyme activity in BEAS-2B cells (marker for NRF2 activation)

>  <pEC50>
5.00 to 6.00

$$$$
>  <Molecule>
CCC[C@@H]1CCCCN1C(=O)c1cccc(-c2cccc(-n3ncc(C(=O)O)c3C3CC3c3cnn(C)c3)c2)c1 (stereo partly shown) [Example 213]

>  <System>
NQO1 specific enzyme activity in BEAS-2B cells (marker for NRF2 activation)

>  <pEC50>
6.00 to 7.00

$$$$
>  <Molecule>
CCC[C@@H]1CCCCN1C(=O)c1cccc(-c2cccc(-n3ncc(C(=O)O)c3[C@H]3C[C@@H]3c3cn(CC)nn3)c2)c1 (racemic) [Example 201]

>  <System>
NQO1 specific enzyme activity in BEAS-2B cells (marker for NRF2 activation)

>  <pEC50>
6.00 to 7.00

$$$$
>  <Molecule>
C[C@H](Oc1cccc(-c2cccc(-n3ncc(C(=O)O)c3[C@@H]3C[C@H]3c3cn(C)nn3)c2)c1)C1CCCCC1 [Example 64]

>  <System>
NQO1 specific enzyme activity in BEAS-2B cells (marker for NRF2 activation)

>  <pEC50>
7.00 to 8.00

$$$$

Hey, quick one: what's pEC50 for each of these?
1. C[C@H](Oc1cccc(-c2cccc(-n3ncc(C(=O)O)c3[C@H]3C[C@H]3c3cn(C)nn3)c2)c1)C1CCCCC1 (racemic) [Example 101]
2. CCCC1CCCCN1C(=O)c1cccc(-c2cccc(-n3ncc(C(=O)O)c3C3CC3c3cccnn3)c2)c1 (stereo not shown) [Example 41]
3. C[C@@H](Oc1cccc(-c2cccc(-n3ncc(C(=O)O)c3[C@@H]3C[C@H]3c3cn(C)nn3)c2)c1)C1CCCCC1 [Example 162]
4. CCC[C@@H]1CCCCN1C(=O)c1cncc(-c2cccc(-n3ncc(C(=O)O)c3C3CC3c3cn(C)nn3)c2)c1 (stereo partly shown) [Example 197]
5. CC(Oc1cccc(-c2cccc(-n3ncc(C(=O)O)c3[C@H]3C[C@@H]3c3cn(C)nn3)c2)c1)C1CCCCC1 (single isomer, unassigned) [Example 191]
6. CCC[C@@H]1CCCCN1C(=O)c1cccc(-c2cccc(-n3ncc(C(=O)O)c3C3CC3c3cn(C)nn3)n2)c1 (stereo partly shown) [Example 196]
7. CCC[C@@H]1CCCCN1C(=O)c1cccc(-c2cccc(-n3ncc(C(=O)O)c3CCc3cn(C)nn3)c2)c1 [Example 58]
8. CCC[C@@H]1CCCCN1C(=O)c1cccc(-c2cccc(-n3ncc(C(=O)O)c3[C@@H]3C[C@H]3c3cn(C)nn3)c2)c1 [Example 51h]

Given back:
["6.00 to 7.00", "5.00 to 6.00", "7.00 to 8.00", "5.00 to 6.00", "6.00 to 7.00", "6.00 to 7.00", "5.00 to 6.00", "7.00 to 8.00"]
